Where do the numbers come from? From patent US20230295130A1.

Assay target: CDK12 (aa686-1082)/Cyclin K (Homo sapiens (Human), UniProt Q9NYV4)
Sequence (Q9NYV4 686-1082): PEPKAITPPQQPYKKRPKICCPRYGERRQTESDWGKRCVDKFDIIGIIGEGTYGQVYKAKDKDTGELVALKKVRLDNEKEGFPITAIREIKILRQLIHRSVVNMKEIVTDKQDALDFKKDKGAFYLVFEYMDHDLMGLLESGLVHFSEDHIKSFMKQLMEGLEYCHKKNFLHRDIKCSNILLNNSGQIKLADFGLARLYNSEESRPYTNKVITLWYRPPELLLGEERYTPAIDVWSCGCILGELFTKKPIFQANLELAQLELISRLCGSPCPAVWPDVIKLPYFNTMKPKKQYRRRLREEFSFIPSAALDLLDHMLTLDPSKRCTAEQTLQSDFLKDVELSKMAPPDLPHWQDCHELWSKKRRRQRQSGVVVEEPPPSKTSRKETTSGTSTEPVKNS
Sequence (O75909 whole entry partner, the tested form may be a part): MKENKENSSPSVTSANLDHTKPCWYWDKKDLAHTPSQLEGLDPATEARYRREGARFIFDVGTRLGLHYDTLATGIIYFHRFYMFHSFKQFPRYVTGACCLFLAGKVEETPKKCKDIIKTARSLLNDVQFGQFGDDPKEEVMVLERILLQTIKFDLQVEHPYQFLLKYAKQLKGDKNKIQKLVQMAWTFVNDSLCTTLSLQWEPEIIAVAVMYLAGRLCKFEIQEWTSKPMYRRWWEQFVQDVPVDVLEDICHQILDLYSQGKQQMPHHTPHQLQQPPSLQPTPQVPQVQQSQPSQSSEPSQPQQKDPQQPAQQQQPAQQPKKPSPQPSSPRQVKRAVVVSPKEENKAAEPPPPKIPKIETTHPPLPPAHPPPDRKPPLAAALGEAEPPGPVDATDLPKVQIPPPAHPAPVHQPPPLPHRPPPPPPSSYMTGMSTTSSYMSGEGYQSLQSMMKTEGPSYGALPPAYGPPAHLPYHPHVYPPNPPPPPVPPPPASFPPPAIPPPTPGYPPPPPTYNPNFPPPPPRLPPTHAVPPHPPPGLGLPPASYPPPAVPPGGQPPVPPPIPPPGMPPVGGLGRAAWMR
Test: Enzyme activity test, mobility shift assay (Table 1)
Type: biochemical
Measurement kind: IC50

Task: Query (molecule): CN[C@@H]1C[C@H]2O[C@@](C)([C@@H]1OC)n1c3ccccc3c3c4c(c5c6ccccc6n2c5c31)C(=O)NC4 [Staurosporine, reference compound] ; field requested: IC50
Output: > 500 nM

---

Recorded measurements of IC50, one per entry
Tested on: breast cancer cells MDA-MB 231
Test: Cell anti-proliferation experiment, MTT (Table 2)
Format: cell-based
Particulars: Homo sapiens, MDA-MB-231, 72 h, incubate 3 days
Quick reminder: number only, in nM, skip the unit.

Task: Query (molecule): COC(=O)Nc1ccc2c(-c3nc(N[C@H]4CCCNC4)ncc3C(F)(F)F)c[nH]c2c1C(F)(F)F [Example T-34] ; field requested: IC50
Output: 573

Task: Query (molecule): COC(=O)Nc1ccc2c(-c3nc(N[C@H]4CCCNC4)ncc3C(F)(F)F)c[nH]c2c1C [Example T-52] ; field requested: IC50
Output: 119

Task: Query (molecule): COC(=O)Nc1ccc2c(-c3nc(N[C@H]4CCC(C)(C)NC4)ncc3C(F)(F)F)c[nH]c2c1Br [Example T-36] ; field requested: IC50
Output: 471

Task: Query (molecule): COC(=O)Nc1ccc2c(-c3nc(N[C@H]4CCCNC4)ncc3C(F)(F)F)c[nH]c2c1OC [Example T-37] ; field requested: IC50
Output: 52.7

---

Recorded measurements of pIC50, one per entry
Assay target: CDK7/Cyclin H/MAT1 kinase (Homo sapiens (Human))
Sequence (P50613 whole entry): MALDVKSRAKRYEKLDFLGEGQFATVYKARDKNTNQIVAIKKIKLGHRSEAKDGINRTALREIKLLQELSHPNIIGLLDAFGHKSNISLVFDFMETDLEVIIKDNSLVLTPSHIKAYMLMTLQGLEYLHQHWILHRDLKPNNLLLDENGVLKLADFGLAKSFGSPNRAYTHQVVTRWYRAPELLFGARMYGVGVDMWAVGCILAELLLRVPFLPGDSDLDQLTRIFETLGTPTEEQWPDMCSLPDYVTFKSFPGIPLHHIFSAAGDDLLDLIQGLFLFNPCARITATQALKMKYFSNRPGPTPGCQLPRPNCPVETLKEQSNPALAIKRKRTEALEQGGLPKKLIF
Sequence (P51946 whole entry partner): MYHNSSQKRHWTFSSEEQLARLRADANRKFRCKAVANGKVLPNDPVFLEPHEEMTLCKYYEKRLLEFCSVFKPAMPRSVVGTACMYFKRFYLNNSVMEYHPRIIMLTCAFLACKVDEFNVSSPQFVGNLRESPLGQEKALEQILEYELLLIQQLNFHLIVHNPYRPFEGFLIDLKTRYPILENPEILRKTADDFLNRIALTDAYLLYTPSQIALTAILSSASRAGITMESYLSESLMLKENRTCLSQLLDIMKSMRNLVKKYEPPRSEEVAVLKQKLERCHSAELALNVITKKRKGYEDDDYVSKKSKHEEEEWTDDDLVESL
Sequence (P51948 whole entry partner): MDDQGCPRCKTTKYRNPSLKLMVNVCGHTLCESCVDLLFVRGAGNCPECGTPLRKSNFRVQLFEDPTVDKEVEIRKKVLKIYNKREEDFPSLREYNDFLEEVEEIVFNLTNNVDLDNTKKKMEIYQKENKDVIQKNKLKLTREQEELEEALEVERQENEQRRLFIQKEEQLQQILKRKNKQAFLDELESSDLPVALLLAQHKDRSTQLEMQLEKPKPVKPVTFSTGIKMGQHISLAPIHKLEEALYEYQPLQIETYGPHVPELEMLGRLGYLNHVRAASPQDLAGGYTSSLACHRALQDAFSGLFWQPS
Test: Enzyme activity test, mobility shift assay (Table 1)
Format: biochemical
Particulars: 2 mM ATP; pre-incubated 0 and 60 minutes
pIC50: −log10 of the molar value.

1) CC(=O)Nc1ccc2c(-c3nc(N[C@H]4CCCNC4)ncc3C(F)(F)F)c[nH]c2c1C(C)(C)O [Example T-158] ... > 7.30
2) COC(=O)Nc1ccc2c(-c3nc(N[C@H]4CCC(C)(C)NC4)ncc3C(F)(F)F)c[nH]c2c1OC(F)F [Example T-108] ... > 7.30
3) COC(=O)Nc1ccc2c(-c3nc(N[C@H]4CCCNC4)ncc3C(F)(F)F)cn(C)c2c1Br [Example T-40] ... 6.30 to 7.30
4) CC(=O)Nc1ccc2c(-c3nc(N[C@H]4CCCNC4)ncc3C(F)(F)F)c[nH]c2c1P(C)(C)=O [Example T-15] ... > 7.30
5) COC(=O)Nc1ccc2c(-c3nc(N[C@H]4CCC[C@@H](O)C4)ncc3C(F)(F)F)c[nH]c2c1Br [Example T-29] ... < 6.30
6) COC(=O)Nc1ccc2c(-c3nc(N[C@H]4CCCNC4)ncc3Cl)c[nH]c2c1C(F)(F)F [Example T-88] ... > 7.30
7) COC(=O)Nc1ccc2c(-c3nc(N[C@H]4CCC(C)(C)NC4)ncc3C(F)(F)F)c[nH]c2c1C1CC1(F)F (some centres unmarked) [Example T-105] ... > 7.30
8) COC(=O)Nc1ccc2c(-c3nc(N[C@H]4CCCNC4)ncc3C(F)(F)F)c[nH]c2c1C(F)(F)F [Example T-34] ... > 7.30
9) COC(=O)Nc1ccc2c(-c3nc(N[C@H]4CCCNC4)ncc3C(F)(F)F)c[nH]c2c1C#N [Example T-27] ... > 7.30
10) COC(=O)Nc1ccc2c(-c3nc(N[C@H]4CCC(C)(C)NC4)ncc3C(F)(F)F)c[nH]c2c1C1CC(F)(F)C1 [Example T-106] ... > 7.30

Task: Query the reported pIC50 for CDK7/Cyclin H/MAT1 kinase (Homo sapiens (Human)); item: COC(=O)Nc1ccc2c(-c3nc(N[C@H]4CCC(C)(C)NC4)ncc3Cl)c[nH]c2c1Br [Example T-72]
Output: > 7.30

Task: Query the reported pIC50 for CDK7/Cyclin H/MAT1 kinase (Homo sapiens (Human)); item: COC(=O)Nc1ccc2c(-c3nc(N[C@H]4CCC(C)(C)NC4)ncc3C(F)(F)F)c[nH]c2c1SC(C)C [Example T-89]
Output: > 7.30

Task: Query the reported pIC50 for CDK7/Cyclin H/MAT1 kinase (Homo sapiens (Human)); item: COC(=O)N(C)c1ccc2c(-c3nc(N[C@H]4CCCNC4)ncc3C(F)(F)F)cn(C)c2c1Br [Example T-41]
Output: 6.30 to 7.30
